test system: Ba/F3-BCR-BTK-C481S cells; experiment: Cell assay, in-vitro inhibition of Ba/F3-BCR-BTK-C481S cells (CellTiter-Glo); assay type: cell-based; settings: 2000 cells/well, 72 hrs, read-out: Ba/F3-BCR-BTK-C481S (IC50, in-vitro inhibitory test on cells)
pIC50: −log10 of the molar value.
Property label: pIC50

> print(dat)
                                   molecule  result.number
1  CN[C@H]1CC[C@@H](Nc2ccnc3[nH]cc(C(=O)c4ccc(Oc5ccccc5)cc4Cl)c23)CC1           7.16

P: N[C@H]1CC[C@@H](Nc2ccnc3[nH]cc(C(=O)c4ccc(Oc5ccccc5)cc4Cl)c23)CC1
Q: CC(=O)N[C@H]1CC[C@@H](Nc2ccnc3[nH]cc(C(=O)c4ccc(Oc5ccccc5)cc4Cl)c23)CC1
R: O=C(c1ccc(Oc2ccccc2)cc1Cl)c1c[nH]c2ncnc(N[C@@H]3CC[C@@H](CO)OC3)c12 [ARQ531, reference compound]
q: Sort the 3 molecules by pIC50; largest first, smallest last. Put the labels in the order asked and list them.
a: P, Q, R
(P: 7.28, Q: 6.99, R: 6.35)

====

molecular target: BTK kinase (Homo sapiens); experiment: Inhibitory activity test on BTK kinase (electrophoretic mobility shift assay); assay type: biochemical; details: Caliper EZ ReaderII, enzyme and compound 10 min at room temperature, read-out: BTK (IC50, in-vitro inhibitory test on kinase)
Sequence (Q06187 whole entry): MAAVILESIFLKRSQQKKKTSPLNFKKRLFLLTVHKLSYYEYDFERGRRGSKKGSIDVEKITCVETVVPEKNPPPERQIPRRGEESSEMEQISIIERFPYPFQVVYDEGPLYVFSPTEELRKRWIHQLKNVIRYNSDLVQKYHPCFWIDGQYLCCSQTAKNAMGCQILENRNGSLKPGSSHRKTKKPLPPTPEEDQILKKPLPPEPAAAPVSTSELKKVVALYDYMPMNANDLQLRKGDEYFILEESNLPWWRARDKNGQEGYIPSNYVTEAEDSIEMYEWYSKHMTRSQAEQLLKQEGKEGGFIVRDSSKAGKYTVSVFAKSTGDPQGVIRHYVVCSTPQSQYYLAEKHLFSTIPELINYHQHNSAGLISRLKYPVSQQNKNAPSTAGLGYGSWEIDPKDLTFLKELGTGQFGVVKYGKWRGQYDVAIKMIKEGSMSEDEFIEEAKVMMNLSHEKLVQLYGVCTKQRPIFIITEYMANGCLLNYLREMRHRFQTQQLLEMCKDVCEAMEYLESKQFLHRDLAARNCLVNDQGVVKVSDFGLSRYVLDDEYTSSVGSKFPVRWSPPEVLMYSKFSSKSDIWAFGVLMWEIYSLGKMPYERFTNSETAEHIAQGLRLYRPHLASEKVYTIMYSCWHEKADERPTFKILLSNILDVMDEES
pIC50: −log10 of the molar value.
Property label: pIC50

> print(dat)
                                  structure  property.label  result.number
1  O=C(c1ccc(Oc2ccccc2)cc1Cl)c1c[nH]c2nccc(N[C@H]3CC[C@H](CO)CC3)c12           pIC50           7.02

A: O=C(c1ccc(Oc2ccccc2)cc1Cl)c1c[nH]c2nccc(N[C@H]3CC[C@@H](CO)CC3)c12
B: O=C(c1ccc(Oc2ccccc2)cc1Cl)c1c[nH]c2nccc(N[C@H]3CC[C@@H](C(=O)O)CC3)c12
q: Out of A and B , name the one with the higher pIC50. Provide the label of your selected option as the answer.
a: B
(B: 8.57, A: 7.55)

A: N[C@H]1CC[C@H](Nc2ccnc3[nH]cc(C(=O)c4ccc(Oc5ccccc5)cc4Cl)c23)CC1
B: CS(=O)(=O)N1CCC(Nc2ccnc3[nH]cc(C(=O)c4ccc(Oc5ccccc5)cc4Cl)c23)CC1
C: O=C(c1ccc(Oc2ccccc2)cc1)c1c[nH]c2nccc(N[C@H]3CC[C@@H](C(=O)O)CC3)c12
D: O=C(c1ccc(Oc2ccccc2)cc1Cl)c1c[nH]c2nccc(N[C@@H]3CCCNC3)c12
q: Provide the items ranked by increasing pIC50. Put the labels in the order asked and list them.
a: B, D, A, C
(B: 6.62, D: 7.32, A: 7.80, C: 8.15)
